target: HLA-A*11:01; assay: IEDB peptide-MHC binding, purified MHC/competitive/radioactivity; bounds were set here for any values at or beyond the usual limits of such assays; details: source organism: Homo sapiens
Rule: measured IC50 below 30 nM gets Condition met; anything equal to or greater than 30 nM gets Condition not met.

Would you please look over these solved cases?
# Seq Text, Class Name
records = [
    ("VVLASLIYR", "Condition met"),
    ("AVVLASLIYR", "Condition met"),
    ("SSSHWLRLPR", "Condition not met"),
]

Query: Hi there! Is IC50 for QTSAGHFPR below 30 nM, do you know?
Result: Condition met

Query: Lab note: IC50 threshold 30 nM. Does this sequence come in strictly under it? YMVPFIPLYR
Result: Condition not met

Query: # TODO verify IC50 < 30 nM strictly for this sequence: SIFEQWLRR
Result: Condition met

Query: # check: IC50 < 30 nM for GTQCALTRR
Result: Condition not met

Query: Report whether reported IC50 is lower than 30 nM (strictly) for VVLASLIYRR
Result: Condition not met
